Settings: 298.15 K; 101.33 kPa; Liquid; Pycnometric method
Collected mass density values appear next to each entry.
# output: bare number, implied unit kg/m3

Previously resolved entries follow.
CCO = 785.3
CO = 786.6
CC#N = 777.1
CC(C)O = 781.1
CCCCO = 806.1

Proceeding to the next molecule to report its mass density.
Ask | For the molecule shown here, `CCCO` , give the reported mass density.
Reply | 799.7

From: the NIST ThermoML archive (doi:10.1016/j.jct.2015.09.010)
